- Test system: FGFR3;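 further: KINOMEscan kinase panel screen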
- CONDITION DESCRIPTION: concentration: 1 μM, replicates: in singlicate; n = 1
Quick reference: %Inh of the listed items.
METRIC NAME: %Inh (%)

INSERT INTO assay_data (compound_structure, target_or_system, unit_abbreviation, result_value) VALUES
  ('COC(=O)Nc1nc2ccc(Oc3ccc(NC(=O)Nc4cc(C(F)(F)F)ccc4F)cc3)cc2[nH]1.Cl', 'FGFR3', '%', 11),
  ('COC(=O)Nc1nc2ccc(Oc3ccc(CC(=O)Nc4cc(C(F)(F)F)ccc4F)cc3)cc2[nH]1', 'FGFR3', '%', 8),
  ('Cc1ccc(NC(=O)c2cccc(N3CCCCC3)c2)cc1-c1ccc(C(=O)NCC2CC2)cc1', 'FGFR3', '%', 21),
  ('Cc1ccc(O)cc1Nc1ccnc2cc(-c3ccc(CN4CCCCC4)o3)ccc12', 'FGFR3', '%', 0),
  ('CN(C)CCOc1ccc(-c2cc(-c3ccc(Cl)c(O)c3)c(-c3ccncc3)[nH]2)cc1.Cl.Cl', 'FGFR3', '%', 30),
  ('CCOc1nccc(-c2c(-c3ccc(F)cc3)ncn2C2CCNCC2)n1', 'FGFR3', '%', 11),
  ('Cl.O=C(Nc1ccc(Oc2ccc3[nH]c(NC(=O)c4ccco4)nc3c2)cc1)Nc1cc(C(F)(F)F)ccc1F', 'FGFR3', '%', 36),
  ('COc1cccc(C2=C(Nc3cccc(O)c3)C(=O)NC2=O)c1', 'FGFR3', '%', 28);
